Test system: cervical cancer Hela
Test: cells
Format: cell-based
Details: cultured 48 h, MTT
Measured parameter: pIC50
Give bare numbers, as −log10 of the molar value.

Reference set (2 entries):
Compound	pIC50
COc1cc(C2c3cc4c(cc3C(Nc3ccc5ncccc5c3)C3COC(=O)C23)OCO4)cc(OC)c1O (stereo not drawn) [Compound 26]	5.24
COc1cc(C2c3cc4c(cc3C(Nc3cccc5c3C(=O)c3ccccc3C5=O)C3COC(=O)C23)OCO4)cc(OC)c1OC (stereo not drawn) [Compound 1]	6.15

Would you kindly look at the next entry?
Q: Give the reported pIC50 for this compound. COc1cc([C@@H]2c3cc4c(cc3[C@@H](Nc3ccc(C)c(-c5nccc(-c6cccnc6)n5)c3)[C@@H]3COC(=O)[C@H]23)OCO4)cc(OC)c1OC [Compound 19]
A: 5.32
